- assay.notes: Dose-escalation pharmacokinetics and metabolism study in 15 healthy subjects (LC-MS/MS)
- measurement.parameters: both, human, plasma, iv, 5 mg
reported.property: Cmax (ng/mL)
Answer in ng/mL, number only, no unit symbol.

The measured Cmax associated with CNC1(c2ccccc2Cl)CCCCC1=O (racemic) reads 29.9

====

- assay.notes: Dose-escalation pharmacokinetics and metabolism study in 15 healthy subjects (LC-MS/MS)
- measurement.parameters: both, human, plasma, iv, 5 mg
reported.property: AUC (µg·h/mL)
Answer in µg·h/mL, number only, no unit symbol.

The measured AUC associated with CNC1(c2ccccc2Cl)CCCCC1=O (racemic) reads 0.0523

====

- assay.notes: Dose-escalation pharmacokinetics and metabolism study in 15 healthy subjects (LC-MS/MS)
- measurement.parameters: both, human, plasma, iv, 5 mg
reported.property: MRT
Don't forget the unit after the value.

The measured MRT associated with CNC1(c2ccccc2Cl)CCCCC1=O (racemic) reads 4.68 h

====

- assay.notes: Dose-escalation pharmacokinetics and metabolism study in 15 healthy subjects (LC-MS/MS)
- measurement.parameters: both, human, plasma, iv, 5 mg
reported.property: Vd (L/kg)
Answer in L/kg, number only, no unit symbol.

The measured Vd associated with CNC1(c2ccccc2Cl)CCCCC1=O (racemic) reads 6.58

====

- assay.notes: Dose-escalation pharmacokinetics and metabolism study in 15 healthy subjects (LC-MS/MS)
- measurement.parameters: both, human, plasma, iv, 5 mg
reported.property: half-life (h)
Answer in h, number only, no unit symbol.

The measured half-life associated with CNC1(c2ccccc2Cl)CCCCC1=O (racemic) reads 5.89

====

- assay.notes: Dose-escalation pharmacokinetics and metabolism study in 15 healthy subjects (LC-MS/MS)
- measurement.parameters: both, human, plasma, iv, 5 mg
reported.property: CL renal (mL/min)
Answer in mL/min, number only, no unit symbol.

The measured CL renal associated with CNC1(c2ccccc2Cl)CCCCC1=O (racemic) reads 33.6
